- target.or.test.system: T1, mfNPR1-mFc:hANP complex (monkey; human, UniProt P01160 124-151)
- T1 construct: also called monkey NPR1 complexed to ANP
- test.method.notes: SPR, mAb captured, 37C
Catalogue of kon readings, one per entry.
experimental.readout: kon (M⁻¹ s⁻¹)

| binder | experimental.readout | experimental.result |
| --- | --- | --- |
| mAb25491 (antibody, human IgG4, V domains shown) VH: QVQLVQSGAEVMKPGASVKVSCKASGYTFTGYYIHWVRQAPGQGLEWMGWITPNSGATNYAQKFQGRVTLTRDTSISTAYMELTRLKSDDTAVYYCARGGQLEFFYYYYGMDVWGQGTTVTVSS VL: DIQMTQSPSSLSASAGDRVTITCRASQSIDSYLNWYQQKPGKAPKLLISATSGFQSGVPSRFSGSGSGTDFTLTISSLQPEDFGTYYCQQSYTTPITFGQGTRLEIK | kon | 71000 |
| mAb22805 (antibody, human IgG4, V domains shown) VH: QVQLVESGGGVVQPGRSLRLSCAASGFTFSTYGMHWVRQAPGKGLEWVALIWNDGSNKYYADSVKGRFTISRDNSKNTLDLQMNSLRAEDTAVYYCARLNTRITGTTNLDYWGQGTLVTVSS VL: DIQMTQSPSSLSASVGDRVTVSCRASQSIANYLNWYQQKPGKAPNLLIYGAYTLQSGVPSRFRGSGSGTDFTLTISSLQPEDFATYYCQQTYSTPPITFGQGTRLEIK | kon | 63300 |
| mAb25502 (antibody, human IgG4, V domains shown) VH: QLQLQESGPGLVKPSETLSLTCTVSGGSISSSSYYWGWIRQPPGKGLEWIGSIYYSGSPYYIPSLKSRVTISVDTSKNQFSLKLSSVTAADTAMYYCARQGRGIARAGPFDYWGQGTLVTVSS VL: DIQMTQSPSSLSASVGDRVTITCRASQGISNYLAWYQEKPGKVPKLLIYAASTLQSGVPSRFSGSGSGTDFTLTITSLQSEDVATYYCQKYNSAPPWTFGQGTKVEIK | kon | 91000 |
